Listed next: entries and their corresponding log10 TGI.
# System: SK-MEL-2 melanoma
# experimentNotes: NCI tumour cell line growth inhibition, 48 h
Response schema: value (number) is log10 of TGI in units of µM.

Query block: Value lookup for log10 TGI; key = Cc1occc1C(=S)Nc1ccc(Cl)c(COC(C)(C)C)c1
Result block: 1.52

====

# System: PC-3 prostate
# experimentNotes: NCI tumour cell line growth inhibition, 48 h; in the data active means GI50 below about 0.43 µM; inactive means the rest
Form entry, call: pick from t for active, f for inactive

Reference set, count: 3
COC(=O)[C@@H](C)C[C@H](Cc1ccccc1)NC(=O)c1nc([C@@H](C[C@H](C(C)C)N(C)C(=O)[C@@H](NC(=O)[C@H]2CCCCN2C)C(C)C)OC(C)=O)sc1C
t
CCN1C(=O)N(CC)C2C1NN=c1s/c(=C\c3cccnc3)c(=O)n12 (centres undefined)
f
C=CCc1c2c(c(OC)c3ccoc13)C(=O)/C(=C/c1ccccc1OC)O2
f

Then there is this molecule:
Query block: What classification did Cc1c(C(=O)/C=C/c2csc3ccccc23)[n+](=O)c2ccccc2n1[O-] end up with in this test?
Result block: f

Numbers sourced from PubChem BioAssay (NCI).
